# study system: Steroidogenic factor 1 (Homo sapiens) (UniProt Q13285)
# Sequence (Q13285 whole entry, looked up): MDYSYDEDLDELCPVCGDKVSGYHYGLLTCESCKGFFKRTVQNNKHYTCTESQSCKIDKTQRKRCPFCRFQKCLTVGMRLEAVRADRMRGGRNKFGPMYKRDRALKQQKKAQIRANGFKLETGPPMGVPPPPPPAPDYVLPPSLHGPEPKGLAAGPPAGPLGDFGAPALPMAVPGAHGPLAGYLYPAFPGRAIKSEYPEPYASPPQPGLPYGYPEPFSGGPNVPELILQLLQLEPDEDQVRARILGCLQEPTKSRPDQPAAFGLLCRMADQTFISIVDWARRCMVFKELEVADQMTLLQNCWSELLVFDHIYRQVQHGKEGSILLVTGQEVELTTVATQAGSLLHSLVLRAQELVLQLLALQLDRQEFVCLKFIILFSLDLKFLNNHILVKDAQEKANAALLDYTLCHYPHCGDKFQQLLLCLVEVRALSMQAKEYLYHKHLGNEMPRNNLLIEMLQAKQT
# measurement description: nuclear receptor SF-1 transcriptional inhibitors – cell-based, luminescence, powder samples, single concentration, selectivity assay for LRH1 inverse agonist project, confirmation (AID 488779)
# condition set: HEK293T SF-1 5xSFRE luciferase reporter, 20 h; at 5 µM; stronger effect = higher value
measured quantity: inhibition (%)

See these solved cases before continuing.
INSERT INTO assay_data (mol, measured_quantity, data_value) VALUES
  ('CCN1CCN(c2cc(=O)n(C3CCCCC3)c(=O)[nH]2)CC1', 'inhibition', 5),
  ('O=c1cc(N2CCN(c3cccc(Cl)n3)CC2)[nH]c(=O)n1C1CCCCC1', 'inhibition', -3),
  ('CCOC(=O)N1CCN(c2cc(=O)n(C3CCCCC3)c(=O)[nH]2)CC1', 'inhibition', 19),
  ('O=c1cc(N2CCN(c3cc(Cl)cc(Cl)c3)CC2)[nH]c(=O)n1C1CCCCC1', 'inhibition', -9),
  ('O=c1cc(N2CCN(c3cccc(C(F)(F)F)n3)CC2)[nH]c(=O)n1C1CCCCC1', 'inhibition', 9),
  ('CCn1c(=O)cc(N2CCN(c3ccc(F)cc3)CC2)[nH]c1=O', 'inhibition', 10),
  ('O=c1cc(N2CCN(Cc3ccc4c(c3)OCO4)CC2)[nH]c(=O)n1C1CCCCC1', 'inhibition', 24),
  ('O=c1cc(N2CCOCC2)[nH]c(=O)n1C1CCCCC1', 'inhibition', 0);

A. CCn1c(=O)cc(N2CCN(C(=O)c3ccco3)CC2)[nH]c1=O
B. O=c1cc(N2CCN(c3cccc(C(F)(F)F)c3)CC2)[nH]c(=O)n1Cc1ccccc1
Q. Sorting ascending by inhibition, which comes first: A or B ? State the label of the item chosen.
A. B
(B: 1%, A: 30%)

---

# study system: Steroidogenic factor 1 (Homo sapiens) (UniProt Q13285)
# measurement description: nuclear receptor SF-1 transcriptional inhibitors – cell-based, luminescence, powder samples, single concentration, selectivity assay for LRH1 inverse agonist project, confirmation (AID 488779)
# condition set: HEK293T SF-1 5xSFRE luciferase reporter, 20 h; at 5 µM; stronger effect = higher value
measured quantity: inhibition (%)

INSERT INTO measurements (mol, units_symbol, data_value) VALUES
  ('COC(=O)C1CCN(c2cc(=O)n(C3CCCCC3)c(=O)[nH]2)CC1', '%', 6),
  ('COc1ccc(N2CCN(c3cc(=O)n(C4CCCCC4)c(=O)[nH]3)CC2)cc1', '%', 5),
  ('O=c1cc(N2CCN(C3CCCCC3)CC2)[nH]c(=O)n1C1CCCCC1', '%', 9),
  ('O=c1cc(N2CCN(c3ccc(C(F)(F)F)cc3)CC2)[nH]c(=O)n1C1CCCCC1', '%', 1),
  ('C=CCN1CCN(c2cc(=O)n(C3CCCCC3)c(=O)[nH]2)CC1', '%', -13);

a. Cn1c(=O)cc(N2CCN(c3cccc(Cl)c3)CC2)[nH]c1=O
b. O=c1cc(N2CCN(c3ccccc3)CC2)[nH]c(=O)n1C1CCCCC1
Q. Select one: a or b . Criterion: greater recorded inhibition. State the label of the item chosen.
A. a

P. O=c1cc(N2CCN(c3ccc(F)cc3)CC2)[nH]c(=O)n1C1CCCCC1
Q. CC1CCN(c2cc(=O)n(C3CCCCC3)c(=O)[nH]2)CC1
R. O=C(c1ccccc1)N1CCN(c2cc(=O)n(C3CCCCC3)c(=O)[nH]2)CC1
Q. Put these in order: smallest inhibition first, largest last. Arrange the labels as the request states and list them.
A. Q, P, R
(Q: -5%, P: -2%, R: 2%)

---

# study system: UniProt Q13285
# measurement description: nuclear receptor SF-1 transcriptional inhibitors – cell-based, luminescence, powder samples, single concentration, selectivity assay for LRH1 inverse agonist project, confirmation (AID 488779)
# condition set: HEK293T SF-1 5xSFRE luciferase reporter, 20 h; at 5 µM; stronger effect = higher value
measured quantity: inhibition (%)

INSERT INTO assay_data (mol, measured_quantity, units_symbol, data_value) VALUES
  ('O=c1cc(N2CCN(c3cccc(Cl)c3Cl)CC2)[nH]c(=O)n1C1CCCCC1', 'inhibition', '%', 3),
  ('N#CCn1c(N2CCN(c3cccc(C(F)(F)F)c3)CC2)cc(=O)n(C2CCCCC2)c1=O', 'inhibition', '%', 4),
  ('C=CCn1c(=O)cc(N2CCN(c3cccc(C(F)(F)F)c3)CC2)[nH]c1=O', 'inhibition', '%', -164);

A. O=c1cc(N2CCN(C(c3ccccc3)c3ccccc3)CC2)[nH]c(=O)n1C1CCCCC1
B. C=CCn1c(N2CCN(c3cccc(C(F)(F)F)c3)CC2)cc(=O)n(C2CCCCC2)c1=O
Q. Sorting ascending by inhibition, which comes first: A or B ? State the label of the item chosen.
A. B

1. O=c1cc(N2CCN(c3cccc(C(F)(F)F)c3)CC2)n(Cc2ccccc2)c(=O)n1C1CCCCC1
2. O=c1cc(N2CCN(c3nc(-c4ccccc4)ns3)CC2)[nH]c(=O)n1C1CCCCC1
Q. Sorting ascending by inhibition, which comes first: 1 or 2 ? State the label of the item chosen.
A. 2

A. CC1CCN(c2cc(=O)n(Cc3ccc(F)cc3)c(=O)[nH]2)CC1
B. O=c1cc(N2CCN(c3ccnc4cc(Cl)ccc34)CC2)[nH]c(=O)n1C1CCCCC1
Q. Sorting ascending by inhibition, which comes first: A or B ? State the label of the item chosen.
A. A
(A: 0%, B: 11%)

---

# study system: UniProtKB Q13285
# measurement description: nuclear receptor SF-1 transcriptional inhibitors – cell-based, luminescence, powder samples, single concentration, selectivity assay for LRH1 inverse agonist project, confirmation (AID 488779)
# condition set: HEK293T SF-1 5xSFRE luciferase reporter, 20 h; at 5 µM; stronger effect = higher value
measured quantity: inhibition (%)

1. O=c1cc(N2CCN(c3ncccc3C(F)(F)F)CC2)[nH]c(=O)n1C1CCCCC1
2. CCn1c(=O)cc(N2CCN(Cc3ccccc3)CC2)[nH]c1=O
3. O=c1cc(N2CCN(c3cccc(Cl)c3)CC2)[nH]c(=O)[nH]1
4. O=c1cc(N2CCN(c3ccc(F)cc3F)CC2)[nH]c(=O)n1C1CCCCC1
Q. Your job: order these 4 records by inhibition, ascending. Arrange the labels as the request states and list them.
A. 4, 3, 1, 2

---

# study system: Steroidogenic factor 1 (Homo sapiens)
# measurement description: nuclear receptor SF-1 transcriptional inhibitors – cell-based, luminescence, powder samples, single concentration, selectivity assay for LRH1 inverse agonist project, confirmation (AID 488779)
# condition set: HEK293T SF-1 5xSFRE luciferase reporter, 20 h; at 5 µM; stronger effect = higher value
measured quantity: inhibition (%)

See these solved cases before continuing.
INSERT INTO assay_data (mol, measured_quantity, units_symbol, data_value) VALUES
  ('O=c1cc(N2CCN(c3ccccn3)CC2)[nH]c(=O)n1C1CCCCC1', 'inhibition', '%', -7),
  ('O=c1cc(N2CCC(Cc3ccccc3)CC2)[nH]c(=O)n1C1CCCCC1', 'inhibition', '%', 9),
  ('O=c1cc(N2CCN(c3cccc(Cl)c3)CC2)[nH]c(=O)n1C1CCCCC1', 'inhibition', '%', 5);

1. Cn1c(=O)cc(N2CCN(c3ccc(F)cc3)CC2)[nH]c1=O
2. Cc1ccc(Cl)cc1N1CCN(c2cc(=O)n(C3CCCCC3)c(=O)[nH]2)CC1
Q. Sorting ascending by inhibition, which comes first: 1 or 2 ? State the label of the item chosen.
A. 2
(2: -12%, 1: -2%)

---

# study system: Steroidogenic factor 1 (Homo sapiens)
# measurement description: nuclear receptor SF-1 transcriptional inhibitors – cell-based, luminescence, powder samples, single concentration, selectivity assay for LRH1 inverse agonist project, confirmation (AID 488779)
# condition set: HEK293T SF-1 5xSFRE luciferase reporter, 20 h; at 5 µM; stronger effect = higher value
measured quantity: inhibition (%)

See these solved cases before continuing.
INSERT INTO measurements (mol, units_symbol, data_value) VALUES
  ('O=C(c1ccco1)N1CCN(c2cc(=O)n(C3CCCCC3)c(=O)[nH]2)CC1', '%', 6),
  ('CCn1c(=O)cc(N2CCN(c3ccccc3)CC2)[nH]c1=O', '%', 7),
  ('O=c1cc(N2CCN(c3ncccc3Cl)CC2)[nH]c(=O)n1C1CCCCC1', '%', 13);

a. CC(C)Cn1c(=O)cc(N2CCN(c3cccc(C(F)(F)F)c3)CC2)[nH]c1=O
b. Cc1ccc(C)n1CCN1CCN(c2cc(=O)n(C3CCCCC3)c(=O)[nH]2)CC1
c. O=c1cc(N2CCN(c3nccc4occc34)CC2)[nH]c(=O)n1C1CCCCC1
d. O=c1cc(N2CCN(c3cccc(Br)c3)CC2)[nH]c(=O)n1C1CCCCC1
e. O=c1cc(N2CCN(c3cccc(C(F)(F)F)c3)CC2)[nH]c(=O)n1C1CCCCC1
Q. Put these in order: smallest inhibition first, largest last. Arrange the labels as the request states and list them.
A. a, d, c, e, b

Data origin: PubChem BioAssay AID488779
